Test system: Bacillus subtilis DB104 (SP-AmyQ fusion secretion)
Procedure text: AmyQ secretion efficiency, weighted average sort bin (1 = best secretion, 10 = worst) (bin number (weighted average, 1-10)); higher = lower secretion efficiency
Quantity kind: AmyQ secretion efficiency

Sequence string	Assay system	Quantity kind	Value observed
MKKKLAAGLTASAIVGTTLVVTPAEAADE	Bacillus subtilis DB104 (SP-AmyQ fusion secretion)	AmyQ secretion efficiency	3.03

Below are 5 sequences. Give each one its AmyQ secretion efficiency.
1. MKKSKQSGRLFLGLTPAGANAADL
2. MKKRFSGQMMTGLLFGLTSPAFAAEK
3. MSTGTILVIASILLSFLSVLSGGHHESKAFPV
4. MRGKSSTRKSLIMLIAGFLISFSFQM
5. MHLIRAAGAVCLAVVLIAGCRFNEDQHQAELENT

RESULT:
[6.97, 6.38, 6.64, 7.08, 6.53]
